Consider the following binders; for each one, report its Kd.
- Tested System: T1, rhesus serum albumin (rhesus, UniProt Q28522 17-600)
- T1 construct: also called RhSA
- Test Description: SPR, single cycle kinetics, pH 7.4

Report measured Kd; entry is M79 sdAb (VHH, also called M79 VHH) VHH: QVKLEESGGGLVQAGGSLKLSCAASGSTFSSSSVGWYRQAPGQQRELVAAITSGGSTNTADSVKGRFTMSRDNAKNTVYLQMRDLKPEDTAVYYCNVAGRNWVPISRYSPGPYWGQGTQVTVSS
84.6 nM

Report measured Kd; entry is Rh46 sdAb (VHH, also called Rh46 VHH) VHH: QVKLEESGGGLVQAGGSLRLSCTASTRTFSSYIMGWFRQAPGKERELVAAISWSGRMTHYADSVKGRFAISRDNAKNTVYLQMNVLKPEDTAIYSCAADRTTAWGAPRSQYDSWGQGTQVTVSS
80.8 nM

Report measured Kd; entry is M79-H2 (VHH) VHH: EVQLVESGGGLVQPGGSLRLSCAASGSTFSSSSVGWYRQAPGKGLELVSAITSGGSTNTADSVKGRFTISRDNSKNTLYLQMNSLRAEDTAVYYCNVAGRNWVPISRYSPGPYWGQGTLVTVSS
62.1 nM

Report measured Kd; entry is H18-H1 (VHH) VHH: EVQLVESGGGLVQPGGSLRLSCAASGSIESINRMAWYRQAPGKGLEFVSRISKGGSTNYPDSVKGRFTISRDNSKNTLYLQMNSLRAEDTAVYYCAAGPVWEQFWGQGTLVTVSS
91.5 nM
